The values you see were collected from paper PMC11847724.

assay: Plasma pharmacokinetics of ESK-440 and metabolite CEP-38901; type: in vivo, human; conditions: human, plasma, oral, 150 mg/day, tmax, Day 15, 150 mg/day (N = 3), median (range)
Property Measured: Tmax (h)
Please state the figure in h; there is no need to write the unit.

Would you mind telling me what Tmax value was observed for CNC(=O)c1ccccc1Nc1nc(Nc2ccc3c(c2OC)CCC[C@H](N2CCN(CCO)CC2)C3)ncc1Cl ?
2.1

###

assay: Plasma pharmacokinetics of ESK-440 and metabolite CEP-38901; format: in vivo, human; settings: human, plasma, oral, 500 mg/day, Cmax, Day 1, 500 mg/day (N = 5)
Property Measured: Cmax (ng/mL)
Please state the figure in ng/mL; there is no need to write the unit.

Would you mind telling me what Cmax value was observed for CNC(=O)c1ccccc1Nc1nc(Nc2ccc3c(c2OC)CCC[C@H](N2CCN(CCO)CC2)C3)ncc1Cl [ESK-440] ?
1160

###

assay: Plasma pharmacokinetics of ESK-440 and metabolite CEP-38901; type: in vivo, human; settings: human, plasma, oral, 700 mg/day, AUC0-t, Day 15, 700 mg/day (N = 5)
Property Measured: AUC(0-t) (ng·h/mL)
Please state the figure in ng·h/mL; there is no need to write the unit.

Would you mind telling me what AUC(0-t) value was observed for CNC(=O)c1ccccc1Nc1nc(Nc2ccc3c(c2OC)CCC[C@H](N2CCN(CCO)CC2)C3)ncc1Cl [ESK-440] ?
25900

###

experiment: Plasma pharmacokinetics of ESK-440 and metabolite CEP-38901; format: in vivo, human; details: human, plasma, oral, 100 mg/day, tmax, Day 1, 100 mg/day (N = 3), median (range)
Property Measured: Tmax (h)
Please state the figure in h; there is no need to write the unit.

Would you mind telling me what Tmax value was observed for CNC(=O)c1ccccc1Nc1nc(Nc2ccc3c(c2OC)CCC[C@H](N2CCN(CCO)CC2)C3)ncc1Cl ?
2

###

test: Plasma pharmacokinetics of ESK-440 and metabolite CEP-38901; assay type: in vivo, human; settings: human, plasma, oral, median tmax, range across dose levels, day 1
Property Measured: Tmax

Would you mind telling me what Tmax value was observed for CNC(=O)c1ccccc1Nc1nc(Nc2ccc3c(c2OC)CCC[C@H](N2CCN(CCO)CC2)C3)ncc1Cl ?
2 to 5 h

###

assay: Plasma pharmacokinetics of ESK-440 and metabolite CEP-38901; format: in vivo, human; conditions: human, plasma, oral, 350 mg/day, AUC0-24, Day 1, 350 mg/day (N = 4)
Property Measured: AUC(0-t)
Please answer using a numeric value trailed by its unit.

Would you mind telling me what AUC(0-t) value was observed for CNC(=O)c1ccccc1Nc1nc(Nc2ccc3c(c2OC)CCC[C@H](N2CCN(CCO)CC2)C3)ncc1Cl ?
5.18 µg·h/mL

###

assay: Plasma pharmacokinetics of ESK-440 and metabolite CEP-38901; type: in vivo, human; conditions: human, plasma, oral, 500 mg/day, AUC0-t, Day 15, 500 mg/day (N = 4)
Property Measured: AUC(0-t) (ng·h/mL)
Please state the figure in ng·h/mL; there is no need to write the unit.

Would you mind telling me what AUC(0-t) value was observed for CNC(=O)c1ccccc1Nc1nc(Nc2ccc3c(c2OC)CCC[C@H](N2CCN(CCO)CC2)C3)ncc1Cl ?
37600
